tested on: WT (LAI) HIV-1; assay: Single cycle assay in P4/R5 cells, WT HIV-1; type: cell-based; conditions: Human immunodeficiency virus 1, P4/R5, read-out: EC50 WT (LAI), P4/R5 cells, mean ± standard deviation
Could you please report measured EC50 for the items listed next?
// note: answer is a bare numeric in nM

Enquiry: What value of measured EC50 is listed for Cc1cn([C@H]2C[C@H](N=[N+]=[N-])[C@@H](CO)O2)c(=O)[nH]c1=O [AZT, 3′-azido-3′-deoxythymidine, reference compound] ?
Return: 126

Enquiry: Returns the measured EC50 for the input compound. Input: CCOC(=O)[C@H](C)NP(=O)(OC[C@H]1O[C@@H](n2cnc3c(N)nc(N)nc32)CC1N=[N+]=[N-])Oc1ccccc1 (some centres unmarked)
Return: 120
